Could you please report measured Inhibition rate (%) at 66.7 nM for the items listed next?
Target: T1, CTLA-4-hFc (immunogen A; hFc-labeled CTLA-4 extracellular domain protein) (human, UniProt P16410 36-161)
T1 construct: range 36-161; Made in HEK293 cells, purified on protein A; also called CLTA-4-hFc; CTLA-4 protein; not shown: human IgG Fc fragment (hFc) of the pCpC vector
T1 sequence (looked up): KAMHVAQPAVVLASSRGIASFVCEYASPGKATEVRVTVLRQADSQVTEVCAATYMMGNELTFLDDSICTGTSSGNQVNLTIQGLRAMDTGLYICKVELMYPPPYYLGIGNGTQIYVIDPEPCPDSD
Assay: ELISA, coated CTLA-4-hFc, competitor biotin-B7.1-hFc
Answers are plain numbers, in %.

40C4C6 (chimeric antibody purified from hybridoma supernatant) (antibody, V domains shown, also called mAb09; mAb009) VH: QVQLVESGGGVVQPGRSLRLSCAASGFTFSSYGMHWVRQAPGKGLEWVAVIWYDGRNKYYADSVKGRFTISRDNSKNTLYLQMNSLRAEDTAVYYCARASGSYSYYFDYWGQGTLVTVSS VL: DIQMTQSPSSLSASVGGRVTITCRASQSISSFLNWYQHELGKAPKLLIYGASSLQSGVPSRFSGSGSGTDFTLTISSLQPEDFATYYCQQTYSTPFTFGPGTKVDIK | 89.7
92C8B6 (chimeric antibody purified from hybridoma supernatant) (antibody, V domains shown, also called mAb42; mAb042) VH: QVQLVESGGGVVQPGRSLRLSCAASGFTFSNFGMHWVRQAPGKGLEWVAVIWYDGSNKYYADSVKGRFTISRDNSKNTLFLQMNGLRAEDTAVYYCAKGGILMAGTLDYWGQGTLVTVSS VL: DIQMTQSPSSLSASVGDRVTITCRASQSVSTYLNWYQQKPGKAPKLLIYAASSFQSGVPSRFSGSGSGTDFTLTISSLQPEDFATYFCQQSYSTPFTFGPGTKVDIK | 97
31C12F3 (chimeric antibody purified from hybridoma supernatant) (antibody, V domains shown, also called mAb010) VH: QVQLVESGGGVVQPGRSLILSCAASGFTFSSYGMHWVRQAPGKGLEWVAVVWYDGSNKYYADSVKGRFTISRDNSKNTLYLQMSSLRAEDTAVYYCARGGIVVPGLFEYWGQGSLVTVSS VL: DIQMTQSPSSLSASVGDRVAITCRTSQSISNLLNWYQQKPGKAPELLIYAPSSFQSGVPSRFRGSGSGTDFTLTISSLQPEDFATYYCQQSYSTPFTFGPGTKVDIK | 94.4

-- ask Answer with the recorded Inhibition rate (%) at 66.7 nM for the binder listed here: 97A8D1 (chimeric antibody purified from hybridoma supernatant) (antibody, V domains shown, also called mAb49; mAb049) VH: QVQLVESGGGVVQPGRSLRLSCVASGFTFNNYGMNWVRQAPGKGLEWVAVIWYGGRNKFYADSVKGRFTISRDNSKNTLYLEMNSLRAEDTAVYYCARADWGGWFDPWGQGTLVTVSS VL: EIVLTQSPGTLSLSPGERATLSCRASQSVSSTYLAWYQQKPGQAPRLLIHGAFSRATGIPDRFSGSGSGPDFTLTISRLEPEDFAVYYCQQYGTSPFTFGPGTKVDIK
-- reply 97

The values you see were collected from patent US20210324080A1.
